B1: MLH1 (parent)
chain: YNIATRRKALKNPSEEYGKILEVV

Variants of: B1
ASSAY_INFO: protein stability index of a GFP-peptide fusion (GPS, HEK-293T) (PSI 1-6); higher = more stable;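 also: lentivirally expressed fusions sorted by FACS into six bins by GFP to DsRed ratio, PSI derived from sequencing read proportions per bin multiplied by bin number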
EXPERIMENTAL_CONTEXT: c terminus: a fixed tail appended
MEASURED_ENDPOINT: protein stability index
Give bare numbers.

>  <MUTATIONS>
L10E

>  <protein stability index>
3.53

$$$$
>  <MUTATIONS>
T5N

>  <protein stability index>
2.57

$$$$

Please give protein stability index for each item listed below.
1. V24C
2. A9E
3. N12H
4. K19M
5. R7C
6. I20Y

**A:**
1: 3.37; 2: 2.99; 3: 2.74; 4: 2.51; 5: 2.37; 6: 3.18

Please give protein stability index for each item listed below.
1. G18E
2. E22Q
3. T5E
4. V23I
5. Y1A

**A:**
1: 3.29; 2: 2.42; 3: 3.54; 4: 2.5; 5: 3.18

Please give protein stability index for each item listed below.
1. E22F
2. L21E
3. V24W
4. L10K

**A:**
[2.32, 4.02, 1.96, 3.31]

Please give protein stability index for each item listed below.
1. I20R
2. G18W
3. L10C
4. R6T
5. Y17W

**A:**
[3.6, 1.46, 2.84, 2.32, 2.66]

Provenance of the data: the supplement of paper PMC10567573
